Source of measurements: patent US11130741B2

# Test system: E. coli RNase P RNA, M1 RNA
# ASSAY TEXT: Inhibition of bacterial RNase P activity, IC50 determination (cleavage of pATSerUG by M1 RNA)
# Type: biochemical
# CONDITION PARAMETERS: NI = No inhibition
Listed next: entries and their corresponding pIC50.
Scale: negative log10 of molar concentration, which is what pIC50 denotes.

Given Cl.Cl.NCCN(CCN)CCN1CCC(Nc2cc(C(F)(F)F)cc3c2Nc2ccc(Br)cc2S3)CC1 [compound 331, hydrochloride] , state its recorded pIC50. 5.29

Please give the result for CC1CCN(c2ccc3c(c2)Sc2cc(C(F)(F)F)cc(NC4CCN(CCN)CC4)c2N3)CC1.Cl.Cl [compound 307, hydrochloride] too. 4.80

More entries:
Need pIC50 of FC(F)(F)c1cc2c3c(c1)nc(C1CCNCC1)n3-c1ccccc1S2 , thanks. 4.54
